experiment: Compound cytotoxicity, XTT-based colorimetric assay; format: cell-based; details: human, uninfected MT2 cells, day 4, XTT
Quick reference: CC50 at 4 days of the listed items.

Compound | Relation Symbol | CC50 at 4 days / µM
COc1ccc(N(C)C(=O)[C@H](Cc2ccccc2)NC(=O)Cn2c(=O)n(CC(=O)N[C@@H](Cc3ccccc3)C(=O)N(C)c3ccc(OC)cc3)c3cc(NC(C)=O)ccc32)cc1 | ≥ | 100
Cc1nc2c(F)c(N(C)C(=O)[C@H](Cc3cc(F)cc(F)c3)NC(=O)NS(=O)(=O)N[C@@H](Cc3cc(F)cc(F)c3)C(=O)N(C)c3ccc4sc(C)nc4c3F)ccc2s1 | ≥ | 100
COc1ccc(N(C)C(=O)[C@H](Cc2ccccc2)NC(=O)Cn2c(=O)n(CC(=O)N[C@@H](Cc3ccccc3)C(=O)N(C)c3ccc(OC)cc3)c3cc(Cl)ccc32)cc1 | = | 6.5
CN(C(=O)[C@H](Cc1cc(F)cc(F)c1)NC(=O)CN1c2ccccc2N(CC(=O)N[C@@H](Cc2cc(F)cc(F)c2)C(=O)N(C)c2ccc3scnc3c2)S1(=O)=O)c1ccc2scnc2c1 | ≥ | 100
Cc1ccc(N(C)C(=O)[C@H](Cc2cc(F)cc(F)c2)NC(=O)c2ccc(F)c(C(=O)N[C@@H](Cc3cc(F)cc(F)c3)C(=O)N(C)c3ccc(C)nc3)c2)cn1 | = | 11.1
COc1ccc(N(C)C(=O)[C@H](Cc2ccccc2)NC(=O)Cn2c(=O)n(CC(=O)N[C@@H](Cc3ccccc3)C(=O)N(C)c3ccc(OC)cc3)c3cc(N)ccc32)cc1 | = | 22.7
COc1ccc(N(C)C(=O)[C@H](Cc2ccccc2)NC(=O)c2cc(C(=O)N[C@@H](Cc3ccccc3)C(=O)N(C)c3ccc(OC)cc3)n(C)n2)cc1 | ≥ | 100
COc1ccc(N(C)C(=O)[C@H](Cc2cc(F)cc(F)c2)NC(=O)Cn2c(=O)n(CC(=O)N[C@@H](Cc3cc(F)cc(F)c3)C(=O)N(C)c3ccc(OC)cc3)c3c(Cl)cccc32)cc1 | = | 11.3
COc1ccc(N(C)C(=O)[C@H](Cc2ccccc2)NC(=O)C=C(C)CC(=O)N[C@@H](Cc2ccccc2)C(=O)N(C)c2ccc(OC)cc2)cc1 (single isomer, unassigned) | = | 25.3
C=CCN(C(=O)[C@H](Cc1cc(F)cc(F)c1)NC(=O)c1ccccc1C(=O)N[C@@H](Cc1cc(F)cc(F)c1)C(=O)N(CC=C)c1ccc(OC)cc1)c1ccc(OC)cc1 | ≥ | 100
